Tested on: PrP^C in N2a-c13 cells
Format: cell-based, mouse
condition-label: read-out: EC50 (μM) ELISA in N2a-cl3 cells (value in parentheses)
property: EC50
Record the result as a number with its unit.

Guide cases for EC50, answers given:
• CCOC(=O)c1[nH]c2c(c1C)C(=O)CC(c1ccco1)C2 (stereo not drawn) = 1.12 µM
• NC(=O)c1ccccc1NC(=O)c1cccnc1N1CCCCC1 = 3.11 µM

Turning now to a further compound:
# EC50 lookup, item `COc1cc(OC)cc(C(=O)Nc2ccc(I)cn2)c1`
0.863 µM

---

procedure-summary: Hepatic microsomal stability, mouse
condition-label: mouse microsomes
For each record, check the reported Hepatic Extraction Ratio Mouse: if it is below 0.7 write Satisfied, else write Not satisfied.

Here are 3 molecules together with their reported answers.
- Cc1ccnc(Nc2nc(-c3ccncc3)cs2)c1: Not satisfied
- COc1ccc(-c2csc(Nc3ccc4ccccc4n3)n2)cc1OC: Satisfied
- c1ccc2cc(Nc3nc(-c4ccncc4)cs3)ncc2c1: Not satisfied

Lab note: Hepatic Extraction Ratio Mouse threshold 0.7. Does this molecule come in strictly under it? `Cc1ccc(Nc2nc(-c3cc(-c4ccccc4)no3)cs2)nc1`
Satisfied

---

System: PrP^C in T98G cells
Format: cell-based, human
condition-label: read-out: EC50 (μM) ELISA
Kindly state EC50 for each of the entries shown.
One number for each entry, in µM.

Worked examples follow.
• O=C(Cc1ccc(Br)cc1)NCc1ccccc1 = 2.33
• COc1ccc(CC(=O)NCc2ccccc2)cc1 = 3.36

// map `O=C(Cc1ccc(-c2ccccc2)cc1)NCc1ccccc1` to recorded EC50 (system: PrP^C in T98G cells)
0.267

---

procedure-summary: Single-dose pharmacokinetics in FVB mice (oral gavage, IV)
condition-label: single oral dose, FVB mice, brain
property: Brain exposure (AUClast) ranking

* Cc1ccnc(Nc2nc(-c3ccccc3O)cs2)c1 [IND48] | lowest AUClast values
* Cc1ccnc(Nc2nc(-c3ccc(O)cc3)cs2)c1 [IND49] | lowest AUClast values

---

procedure-summary: Single-dose pharmacokinetic studies in female FVB mice (PO, IV, IP)
Assay type: in vivo, mouse
condition-label: female, FVB, mouse, plasma, oral, 10 mg/kg, mice; IV 1 mg/kg, oral 10 mg/kg; read-out: oral (absolute) bioavailability
Experimental: For in-vivo pharmacokinetic studies, compounds were dissolved in a formulation containing 20% propylene glycol, 5% ethanol, 5% labrosol, and 70% polyethylene glycol 400 (PEG400) and administered by oral gavage to female FVB mice weighing ˜25 g. […] Plasma and brain homogenate samples were extracted using a protein-precipitation method and analyzed by specific LC/MS/MS methods developed for each compound dosed in vivo. […]
property: bioavailability

• Cc1ccnc(Nc2nc(-c3ccc(-c4ccccn4)s3)cs2)c1 = 27 to 40%

Could you tell me which bioavailability is on file for `Cc1cccc(Nc2nc(-c3ccc(-c4ccccc4)cc3)cs2)n1` ?
27 to 40%

---

procedure-summary: Hepatic microsomal stability, mouse
condition-label: CD-1, mouse, mouse liver microsomes, pH 7.4
property: half-life at 1 μM (min)
One number for each entry, in min.

Example entries begin here.
- Cc1ccnc(Nc2nc(-c3ccc(-c4ccccn4)s3)cs2)c1: 19
- Cc1ccnc(Nc2nc(-c3ccncc3)cs2)c1: 6
- C(=N\Nc1ccc(-c2cnco2)cc1)/c1ccncc1 [Compound B, reference compound]: 30
- COc1ccc(Nc2nc(-c3ccc(OC)c(OC)c3)cs2)nc1: 29
- c1ccc2cc(Nc3nc(-c4ccncc4)cs3)ncc2c1: 15

Then this molecule:
Look up half-life at 1 μM: `Cc1cccc(Nc2nc(-c3cc4ccccc4o3)cs2)n1`
49

---

procedure-summary: Single-dose pharmacokinetics in FVB mice (oral gavage, IV)
condition-label: female, FVB, mouse, plasma, iv, 1 mg/kg
property: AUC(0-t)

• Cc1cccc(Nc2nc(-c3ccc(-c4ccccc4)cc3)cs2)n1 [IND24] = 953 ng·h/mL

Consider the record given below.
I am curious: what AUC(0-t) value has been reported for Cc1ccnc(Nc2nc(-c3ccc(-c4ccccn4)s3)cs2)c1 [IND81] ?
106 ng·h/mL

---

procedure-summary: Single-dose pharmacokinetics in FVB mice (oral gavage, IV)
condition-label: female, FVB, mouse, plasma, po, 10 mg/kg
property: bioavailability

Past entries and their recorded results:
- Cc1cccc(Nc2nc(-c3cc4ccccc4o3)cs2)n1 [IND22]: 46%
- C(=N\Nc1ccc(-c2cnco2)cc1)/c1ccncc1 [Compound B, reference compound]: 25 to 27%
- Cc1cccc(Nc2nc(-c3ccc(-c4ccccc4)cc3)cs2)n1 [IND24]: 40%

Kindly consider the entry below.
Given Cc1ccnc(Nc2nc(-c3ccc(-c4ccccn4)s3)cs2)c1 [IND81] , state its recorded bioavailability.
25 to 27%

---

condition-label: […]
property: metabolic stability (in words)

* COc1ccc(-c2csc(Nc3cc4ccccc4cn3)n2)cc1OC | excellent stability
* Cc1ccc(Nc2nc(-c3cc(-c4ccccc4)no3)cs2)nc1 | excellent stability
* COc1ccc(-c2csc(Nc3ccc(C(F)(F)F)cn3)n2)cc1OC | excellent stability
* COc1ccc(-c2csc(Nc3ccc4ccccc4n3)n2)cc1OC | excellent stability

---

procedure-summary: Multidose (three-day) pharmacokinetics in liquid diet in FVB mice
condition-label: FVB, mouse, in vivo, 40 mg/kg, Brain Concentration (Css), three-day dosing in liquid diet, brain
property: concentration at 3 days (nM)
Answers are plain numbers, in nM.

• c1ccc2cc(Nc3nc(-c4ccncc4)cs3)ncc2c1 [IND85] = 20
• COc1ccc(-c2csc(Nc3cc4ccccc4cn3)n2)cc1OC [IND46] = 30
• Cc1ccc(Nc2nc(-c3cc(-c4ccccc4)no3)cs2)nc1 [IND33] = 880
• Cc1cccc(Nc2nc(-c3ccc(-c4ccccc4)cc3)cs2)n1 [IND24] = 8700

Provide the reported concentration at 3 days of each entry below, same order.
1. Cc1cccc(Nc2nc(-c3cc4ccccc4o3)cs2)n1 [IND22]
2. COc1ccc(-c2csc(Nc3ccc4ccccc4n3)n2)cc1OC [IND47]

1: 1310; 2: 400

---

procedure-summary: in vitro
condition-label: Sprague-Dawley, rat, plasma, pH 7.4
property: fraction unbound at 4 h

# query: fraction unbound at 4 h of entry `Cc1ccnc(Nc2nc(-c3ccc(-c4ccccn4)s3)cs2)c1`
~0.57

---

procedure-summary: Hepatic microsomal stability, mouse
condition-label: mouse
For each entry below, report its Hepatic Extraction Ratio Mouse value.
Answers are plain numbers.

Solved cases (3 shown):
• c1ccc2cc(Nc3nc(-c4ccncc4)cs3)ncc2c1 = 0.9
• Cc1cccc(Nc2nc(-c3cc4ccccc4o3)cs2)n1 = 0.7
• C(=N\Nc1ccc(-c2cnco2)cc1)/c1ccncc1 [Compound B, reference compound] = 0.8

As a next step, examine the compound that follows.
Bench note: what Hepatic Extraction Ratio Mouse did `Cc1ccnc(Nc2nc(-c3ccncc3)cs2)c1` show?
0.95

---

procedure-summary: Hepatic microsomal stability, human
condition-label: human liver microsomes; predicted hepatic extraction
Give Hepatic Extraction Ratio Human for every item shown.
Answers are plain numbers.

Example entries and their recorded answers appear below.
• Cc1c(C(=O)OC(C)C)[nH]c2c1C(=O)CC(c1cccs1)C2 (stereo not shown) = 0.74
• CCOc1ccccc1C1C(C#N)=C(N)Oc2cc(N(C)C)ccc21 (stereo not shown) = 0.77
• COc1cccc(N2CCN(C(=O)c3cc(C)ccc3OC)CC2)c1 = 0.87
• NC(=O)c1ccccc1NC(=O)c1cccnc1N1CCCCC1 = 0.65

For each listed entry, give its Hepatic Extraction Ratio Human.
1. COc1ccc(S(=O)(=O)N2CCOc3ccccc32)cc1
2. O=C(Cc1ccc(-c2ccccc2)cc1)NCc1ccccc1
3. CCOc1ccc(Nc2nc(-c3c(C)nc4sccn34)cs2)cc1

0.94
0.86
0.76

---

procedure-summary: Single-dose pharmacokinetic studies in female FVB mice (PO, IV, IP)
Format: in vivo, mouse
condition-label: female, FVB, mouse, plasma, po, 10 mg/kg, mice; IV 1 mg/kg, oral 10 mg/kg; read-out: oral (absolute) bioavailability
Procedure: For in-vivo pharmacokinetic studies, compounds were dissolved in a formulation containing 20% propylene glycol, 5% ethanol, 5% labrosol, and 70% polyethylene glycol 400 (PEG400) and administered by oral gavage to female FVB mice weighing ˜25 g. […] Plasma and brain homogenate samples were extracted using a protein-precipitation method and analyzed by specific LC/MS/MS methods developed for each compound dosed in vivo. […]
Consider the following molecules; for each one, report its bioavailability.

In the examples that follow, each entry is paired with its recorded bioavailability.
* Cc1ccnc(Nc2nc(-c3ccc(-c4ccccn4)s3)cs2)c1 | 25 to 27%
* C(=N\Nc1ccc(-c2cnco2)cc1)/c1ccncc1 [IND54304, reference compound] | 25 to 27%

Here is another molecule to look at.
Could you tell me which bioavailability is on file for `Cc1cccc(Nc2nc(-c3ccc(-c4ccccc4)cc3)cs2)n1` ?
40%
